Cited source: ChEMBL document CHEMBL3217659

Tested on: Candida parapsilosis
Experiment: Antifungal activity against Candida parapsilosis after 48 hrs by microbroth dilution technique
Format: functional
Task for the reader: assign each of the following molecules its reported MIC.
Give bare numbers, in µg/mL.

INSERT INTO assay_data (molecule, units_text, endpoint_result) VALUES
  ('CCCCCCCCn1cc(CC(O)(Cn2cncn2)c2ccc(F)cc2F)nn1 (stereo in doubt; 2B)', 'µg/mL', 50),
  ('CCCCCCCCn1cc(CC(O)(Cn2cncn2)c2ccc(F)cc2F)nn1 (racemic)', 'µg/mL', 0.0112),
  ('CCCCCCc1cnnn1CC(O)(Cn1cncn1)c1ccc(F)cc1F (stereo in doubt; 9A)', 'µg/mL', 50);

Now examine the next entry.
Request: Record request: MIC value, item CCCCCCCCn1cc(CC(O)(Cn2cncn2)c2ccc(F)cc2F)nn1 (stereo in doubt; 2A)
Response: 0.0011
